Where do the numbers come from? From PubChem BioAssay (NCI).

Examples of compounds with documented TGI follow.
# Tested on: SNB-78 CNS
# Assay Overview: NCI tumour cell line growth inhibition, 48 h

The compound listed as O=C1c2ccccc2N2OC3(N4CCCC4)CCCC3C12c1ccccc1 (stereo unspecified) has a reported TGI of > 100 µM

====

# TGI annotations
# Tested on: SF-295 CNS
# Assay Overview: NCI tumour cell line growth inhibition, 48 h

These solved cases illustrate the format of a correct answer.
{"Compound": "O=[N+]([O-])/C(Cl)=C(/C(Cl)=C(Cl)Cl)N1CCCCC1", "Assay Readout": "TGI", "Test Value": "54.3 µM"}
{"Compound": "CCOc1ccc(N=Nc2ccc3cc(/C(C)=N/NC(=O)/C(C#N)=C\\c4ccc(N(CCC#N)CCC#N)cc4)c(=O)oc3c2)cc1", "Assay Readout": "TGI", "Test Value": "> 10 µM"}
{"Compound": "CCCCCCCCCCCCOCCOCCOCCOCCOCCOCC(=O)NC(Cc1ccccc1)C(=O)Oc1ccc([N+](=O)[O-])cc1 (stereo unspecified)", "Assay Readout": "TGI", "Test Value": "> 100 µM"}
{"Compound": "COc1ccc([C@H]2CC(=O)N3CCCC3N2)cc1 (stereo partly specified)", "Assay Readout": "TGI", "Test Value": "> 100 µM"}
{"Compound": "COc1ccc(-c2cc(-c3ccc(Cl)cc3)c(C#N)c(=O)n2CCCCC(=O)Nc2ccccc2N)cc1", "Assay Readout": "TGI", "Test Value": "5.96 µM"}
{"Compound": "C#CCOCC12C=CC(O1)C1COC(=O)C12 (stereo unspecified)", "Assay Readout": "TGI", "Test Value": "> 100 µM"}
{"Compound": "CC(C)(C)OC(=O)NCC(C#N)CNC(=O)OC(C)(C)C", "Assay Readout": "TGI", "Test Value": "> 100 µM"}
{"Compound": "Cc1nc(SCC(N)=O)c2sc(=S)n(-c3ccccc3)c2n1", "Assay Readout": "TGI", "Test Value": "> 10 µM"}

So for N#C/C(=C\c1cccc(Br)c1)c1nc2ccccc2c(=O)[nH]1 , the logged TGI turned out to be > 100 µM

Record Nc1nncc2[nH]cnc12 , field TGI: > 100 µM

get_value(item= O=C(C(=O)c1ccc(Cc2ccc(C(=O)C(=O)c3ccccc3)cc2)cc1)c1ccccc1 , readout=TGI) returns > 100 µM

====

# Test system: SNB-19 CNS
# Assay Overview: NCI tumour cell line growth inhibition, 48 h
Recorded measurements of TGI, one per entry

{"Compound": "CC[O-].CC[O-].O=C1C(=C([O-])c2ccccc2)C(=O)c2ccccc21.O=C1C(=C([O-])c2ccccc2)C(=O)c2ccccc21.[Ti+4]", "Assay Readout": "TGI", "Test Value": "93 µM"}
{"Compound": "COC(=O)c1ccc2c(c1)C(NC(C)=O)CCc1cc(OC)c(OC)c(OC)c1-2 (centres undefined)", "Assay Readout": "TGI", "Test Value": "> 86.9 µM"}
{"Compound": "Cc1c(C)c2cc3c(=O)ccoc3c(C)c2oc1=O", "Assay Readout": "TGI", "Test Value": "> 100 µM"}
{"Compound": "CN1C2CC(C#N)C1C=CC2=O (centres undefined)", "Assay Readout": "TGI", "Test Value": "> 100 µM"}
{"Compound": "CCCCCCCCCCCCOCCOCCOCCOCCOCCOCC(=O)NC(Cc1ccccc1)C(=O)Oc1ccc([N+](=O)[O-])cc1 (centres undefined)", "Assay Readout": "TGI", "Test Value": "> 100 µM"}
{"Compound": "CC(CO)[C@H]1OC(=O)C=C2[C@@]13O[C@@H]3[C@H]1OC(=O)[C@@]3(C)[C@H]4O[C@H]4C[C@@]2(C)[C@@H]13 (some centres undefined)", "Assay Readout": "TGI", "Test Value": "> 30.8 µM"}
{"Compound": "COc1ccc(Cl)cc1Nc1nc(C(F)(F)F)ccc1C(=O)NN", "Assay Readout": "TGI", "Test Value": "> 100 µM"}
{"Compound": "O=C(O)c1cc[c]([Hg][S]c2ncnc3nc[nH]c23)cc1", "Assay Readout": "TGI", "Test Value": "> 100 µM"}

For reference, reported TGI for C/C(=N\O)c1ccc(Nc2cc(-n3nnc4ccccc43)nc3ccccc23)cc1 stands at > 90.7 µM
